self-cleavage values, listed per item
B1: OR4K15 (parent)
chain: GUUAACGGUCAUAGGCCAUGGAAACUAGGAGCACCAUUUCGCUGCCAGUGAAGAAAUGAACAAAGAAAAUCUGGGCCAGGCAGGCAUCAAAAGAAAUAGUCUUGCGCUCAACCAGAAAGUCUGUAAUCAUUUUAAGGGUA

- Variants of: B1
- EXPERIMENT: self-cleavage, relative activity (ratio to wild type); higher = more cleavage; in vitro, sequencing; the parent is a self-cleaving ribozyme
Answer as a number with no unit attached.

Recorded results for 5 variants are shown here.
GUUAACGGUCAUUGGCCAUGGAAACUAGGAGCACCAUUUCGCUGCCAGUGAAGAGAUGAACAAAGAAAAUCUGGGCCAGGCAGGCAUCAAAAGAAAUAGUCUUGCGCUCAACCAGAAAGUCUGUAAUCAUUUUAAGGGUA | 0.85
GUUAACGGUCAUAGGCCAUGGAAACUAGGAGCACCAUUUCACUGCCAGUGAAGAAAUGAACAAAGAAAAUCUGGGCCAGGCAGGCAUCAAAAGAAAUAGUCUUGCGCUCAACCAGAAAGUCUGCAAUCAUUUUAAGGGUA | 1.02
GUCAACGGUCAUAGGCCAUGGAAACAAGGAGCACCAUUUCGCUGCCAGUGAAGAAAUGAACAAAGAAAAUCUGGGCCAGGCAGGCAUCAAAAGAAAUAGUCUUGCGCUCAACCAGAAAGUCUGUAAUCAUUUUAAGGGUA | 1.76
GUUAACGGUCAUAGGCCAUGGAAACUAGGAGCACCAUUUCGCUGCCAGUGAAGAAAUGAACAAAGAAAAUCUGGGCCAGGCAGGCAUCUAAAGAAAUAGUCUCGCGCUCAACCAGAAAGUCUGUAAUCAUUUUAAGGGUA | 1.12
GUUAACGGUCAUAGGCCAUGGAAACUAGGAGCACCAUUUCGCUGCCAGUGAAGAAAUGAAUAAAGAAAAUCUGGGCCAGGCAGGCACCAAAAGAAAUAGUCUUGCGCUCAACCAGAAAGUCUGUAAUCAUUUUAAGGGUA | 1.35

Q: Suppose we examine the variant GUUAACGGUCAUAGGCCAUGGAAACUAGGAGCACCAUUUCGCUGCCAGUGAAGAAAUGAGCAAAGAAAAUCUGGGCCAGGCAGGCAUCAAAAGAAAUAGUCUUGCGCUCAACCAGAAAGUCUGUUAUCAUUUUAAGGGUA ; what self-cleavage value has been reported?
A: 2.64

Q: Suppose we examine the variant GUUAACGGUCAUAGGCCUUGGAAACUAGGAGCACCAUUUCGCUGCCAGUGAAGAAAUGAACAAAGAAAAUCUGGGCCAGGCAGGCAUCAAAAGAAAUAGUCCUGCGCUCAACCAGAAAGUCUGUAAUCAUUUUAAGGGUA ; what self-cleavage value has been reported?
A: 0.98

Q: Suppose we examine the variant GUUAACGGUCAUAGGCCAUGGAAACUAGGAGCCCCAUUUCGCUGCCAGUGAAGAAAUGAACAAAGAAAAUCUAGGCCAGGCAGGCAUCAAAAGAAAUAGUCUUGCGCUCAACCAGAAAGUCUGUAAUCAUUUUAAGGGUA ; what self-cleavage value has been reported?
A: 0.33

Q: Suppose we examine the variant GUUAACGGUCAUAGGCCAUGGAAACUAGGAGCACCAUUUCGCUGCCAGUGAAGAAAUGAACAAAGAAAAUCAGGGCCAGGCAGGCAUCAAAAGAAAUAGUCUUGCGCUCAACCAGAAAGUCUGUAUUCAUUUUAAGGGUA ; what self-cleavage value has been reported?
A: 0.37

Q: Suppose we examine the variant GUUAACGAUCAUAGGCCGUGGAAACUAGGAGCACCAUUUCGCUGCCAGUGAAGAAAUGAACAAAGAAAAUCUGGGCCAGGCAGGCAUCAAAAGAAAUAGUCUUGCGCUCAACCAGAAAGUCUGUAAUCAUUUUAAGGGUA ; what self-cleavage value has been reported?
A: 0.78

Q: Suppose we examine the variant GUUAACGGUCACAGGCCAUGGAAACUAGGAGCACCAUUUCGCUGCCAGUGAAGAAAUGAACAAAGAAAAUCUGGGCCAGGCAGGCAUCAAAAGAAAUAGUCUUGCGCUCAACCAGAAAGUCUGUAAUCAUUUUAAGGGCA ; what self-cleavage value has been reported?
A: 1.41

Q: Suppose we examine the variant GUUAACGGUCAUAGGCCAUGGAAACUAGGAGCACCAUUUCGCUGCCAGUGAAGAAAUGAACAAAAAAAAUCUGGGCCAGGCAGGCAUCAAAAGAAAUAGUCUUGCGCUCAACCAGAAAGUCUGUAAUCAUUUUAAGGGUA ; what self-cleavage value has been reported?
A: 1.5

Q: Suppose we examine the variant GUUAACGGUCAUAGGCCAUGGAAACUAGGAGCACCAUUUCGCUGCCAGUGAAGAAAUGAACAAAGAAAAUCUGGGCCAGGCAGGCAUCAAAAGAAAUAGUCUUGCGCUCAGCCAGAAAGUCUGUAAGCAUUUUAAGGGUA ; what self-cleavage value has been reported?
A: 0.02

Q: Suppose we examine the variant GUUAACGGUCAUGGGCCAUGGAAACUAGGAGCACCAUUUCGCUGCCAGUGAAGAAAUGAACAAAGAAAAUCUGGGCCAGGCAGGCAUCAAAAGAAAUAGUCUUGCGCUCGACCAGAAAGUCUGUAAUCAUUUUAAGGGUA ; what self-cleavage value has been reported?
A: 0.13

Q: Suppose we examine the variant GUUAACGGUCAUAGGCCAAGGAAACUAGGAGCACCAUUUCGCUGCCAGUGAAGAAAUGAACAAAGAAAAUCUGGGCCAGGCAGGCAUCAAAAGAAUUAGUCUUGCGCUCAACCAGAAAGUCUGUAAUCAUUUUAAGGGUA ; what self-cleavage value has been reported?
A: 1.41

Q: Suppose we examine the variant GUCAACGGUCAUAGGCCAUGGAAACUAGGAGCACCAUUUCGCUGCCAGUGAAGAAAUGGACAAAGAAAAUCUGGGCCAGGCAGGCAUCAAAAGAAAUAGUCUUGCGCUCAACCAGAAAGUCUGUAAUCAUUUUAAGGGUA ; what self-cleavage value has been reported?
A: 1.17

Q: Suppose we examine the variant GUUCACGGUCAUAGGCCAUGGAAACUAGGAGCACCAUUUCGCUGCCAGUGAAGAAAUGAACUAAGAAAAUCUGGGCCAGGCAGGCAUCAAAAGAAAUAGUCUUGCGCUCAACCAGAAAGUCUGUAAUCAUUUUAAGGGUA ; what self-cleavage value has been reported?
A: 0.93

Q: Suppose we examine the variant GUUAACGGUCAUAGGCCAUGGAAACUAGGAGCACCACUUCGCUGCCAGUGAAGAAAUGAACAAAGAAAAUCUGGGCCAGGCAGGCAUCAAAAGAAAUAGUCUUGCGCUCAACCAGAAAGUCUGUAAUCAUUUCAAGGGUA ; what self-cleavage value has been reported?
A: 1.16

Q: Suppose we examine the variant GUUAACGGUCAUAGGCCAUGGAAACUAGGAGCACCAUUUCGCUUCCAGUGAAGAAAUGAACAAAGUAAAUCUGGGCCAGGCAGGCAUCAAAAGAAAUAGUCUUGCGCUCAACCAGAAAGUCUGUAAUCAUUUUAAGGGUA ; what self-cleavage value has been reported?
A: 2.02

Q: Suppose we examine the variant GUUAACGGUCAUAGGCCAUGGAAACUAGGAGCACUAUUUCGCUGCCAGUGAAGAAAAGAACAAAGAAAAUCUGGGCCAGGCAGGCAUCAAAAGAAAUAGUCUUGCGCUCAACCAGAAAGUCUGUAAUCAUUUUAAGGGUA ; what self-cleavage value has been reported?
A: 0.59

Q: Suppose we examine the variant GUUAACGGUCAUAGGCCAUGGAAACUAGGAGCACCAUUUCGCUGCCAGUGAAGAAAUGAACAAAGAAAAUCUGGGCCAGGCAGGCAUCAAAAGAAAUAGUCUUGCGCUCGACCAGAAAGUCUGUAAUCAUUUUAAAGGUA ; what self-cleavage value has been reported?
A: 0.09

Q: Suppose we examine the variant GUUAACGGUCAUAGGCCAUGGAAACUAGGAGCACCAUUUCGCUGCCAGUGAAGAAAUGAACAAAGAAAAUCUGGGCCAGGCAGGCAUCAAAAGAAAUAGUCUUGCGCUCAACCAGAAAGUCUGUGAACAUUUUAAGGGUA ; what self-cleavage value has been reported?
A: 1.11
